Assay: activity coefficient (dimensionless); of the first substance listed, at infinite dilution; xn = mol fraction of the nth substance listed
Settings: 348.15 K; Liquid; Chromatography; x1 = 0
activity coefficient listing for selected molecules.
attribute measured: activity coefficient

- molecule: "CCCCCCCCCC [decane] + CCCCCCn1cc[n+](C)c1.N#C[B-](C#N)(C#N)C#N"
  data value: 33.8
- molecule: "C1CCOC1 [tetrahydrofuran] + CCCCCCn1cc[n+](C)c1.N#C[B-](C#N)(C#N)C#N"
  data value: 0.501
- molecule: "C=CCCCC [hex-1-ene] + CCCCCCn1cc[n+](C)c1.N#C[B-](C#N)(C#N)C#N"
  data value: 5.58
- molecule: "CCC[N+](=O)[O-] [1-nitropropane] + CCCCCCn1cc[n+](C)c1.N#C[B-](C#N)(C#N)C#N"
  data value: 0.508
